assayed_target: T1, Recombinant human Dkk-1 (R&D Systems cat no. 1096-DK/CF), 10xHis tag at the C terminal (human, UniProt O94907 32-266)
T1 construct: the actual N-terminus of the purified protein is marked in bold italic after residue 30, but the mark is an image lost in the text; also called rhuDkk-1; hDkk-1
T1 sequence: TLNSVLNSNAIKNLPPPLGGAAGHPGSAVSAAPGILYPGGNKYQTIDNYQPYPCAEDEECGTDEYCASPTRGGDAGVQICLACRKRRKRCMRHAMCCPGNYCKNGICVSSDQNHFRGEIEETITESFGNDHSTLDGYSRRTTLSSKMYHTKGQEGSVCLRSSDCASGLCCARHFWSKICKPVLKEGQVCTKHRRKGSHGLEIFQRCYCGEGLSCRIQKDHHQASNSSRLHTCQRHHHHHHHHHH
assay_summary: SPR screening 37C (BIAcore/ProteOn), Fab lysate over biotinylated human Dkk-1
measured_quantity: log10 koff (log10 of the value in s⁻¹)
The base-10 logarithm of koff, taken with koff in s⁻¹, is what appears here.

Record excerpt, results attached:
binder	measured_quantity	measured_number
L2.1B5 (Fab, V domains shown, tested as Fab (E. coli lysate, screening mode); human kappa CL and IgG2 CH1 not included here) VH: EVQLVESGGGLVQPGGSLRLSCAASGFTFSSYAISWVRQAPGKGLEWVASVSGWGDTYYPDSVKGRFTISRDNAKNSLYLQMNSLRAEDTAVYYCATSLENYAFDYWGQGTTVTVSS VL: EIVLTQSPATLSLSPGERATLSCRASESVDDFGISFMNWYQQKPGQAPRLLIYAASKQGSGIPARFSGSGSGTDFTLTISSLEPEDFAVYYCQQSKEVPPTFGGGTKVEIK	log10 koff	-2.35
1F10.33L (Fab, V domains shown, human kappa CL and IgG2 CH1 not included here) VH: EVQLVESGGGLVQPGGSLRLSCAASGFTFSSYAISWVRQAPGKGLEWVASVSGGFQTYYPDSVKGRFTISRDNAKNSLYLQMNSLRAEDTAVYYCATSLDNYAFDYWGQGTTVTVSS VL: EIVLTQSPATLSLSPGERATLSCRASESVDDFGISFINWYQQKPGQAPRLLIYAGSKQGSGIPARFSGSGSGTDFTLTISSLEPEDFAVYYCQQLKEVPPTFGGGTKVEIK	log10 koff	-4.05
24m4 (Fab, V domains shown, tested as Fab (E. coli lysate, screening mode); human kappa CL and IgG2 CH1 not included here) VH: EVQLVESGGGLVQPGGSLRLSCAASGFTFSSYAISWVRQAPGKGLEWVASVSGGGRTYYPDSVKGRFTISRDNAKNSLYLQMNSLRAEDTAVYYCATSLENYAFDYWGQGTTVTVSS VL: EIVLTQSPATLSLSPGERATLSCRASESVDDFGISFLNWYQQKPGQAPRLLIYAASKQGSGIPARFSGSGSGTDFTLTISSLEPEDFAVYYCQQSKEVPPTFGGGTKVEIK	log10 koff	-1.93
L2.4D11 (Fab, V domains shown, tested as Fab (E. coli lysate, screening mode); human kappa CL and IgG2 CH1 not included here) VH: EVQLVESGGGLVQPGGSLRLSCAASGFTFSSYAISWVRQAPGKGLEWVASVSGWMDTYYPDSVKGRFTISRDNAKNSLYLQMNSLRAEDTAVYYCATSLENYAFDYWGQGTTVTVSS VL: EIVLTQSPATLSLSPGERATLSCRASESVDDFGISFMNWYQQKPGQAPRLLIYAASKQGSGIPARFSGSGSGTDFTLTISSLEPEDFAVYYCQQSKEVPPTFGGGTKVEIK	log10 koff	-2.49

Now, please, on to the next binder.
Reported log10 koff of 24 (Fab, V domains shown, positive control Fab of the screening assays; human kappa CL and IgG2 CH1 not included here; printed changes identical to L2.1E5; also called clone 24; Clone 24 Fab) VH: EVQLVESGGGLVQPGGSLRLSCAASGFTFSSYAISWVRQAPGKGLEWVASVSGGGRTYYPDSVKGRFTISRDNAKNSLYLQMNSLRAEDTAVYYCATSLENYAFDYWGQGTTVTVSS VL: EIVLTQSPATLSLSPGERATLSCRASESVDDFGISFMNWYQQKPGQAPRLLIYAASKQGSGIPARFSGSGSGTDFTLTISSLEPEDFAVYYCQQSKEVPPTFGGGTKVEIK : -1.94
